Values compiled from paper PMC8414367.

Recorded measurements of IC50, one per entry
system: HepG2; assay: MTS viability assay; assay type: cell-based, human; conditions: Homo sapiens; HepG2, 24 h, MTS; read-out: IC50 (µM), cell viability

{"columns": ["compound", "target-entity", "IC50"],
 "data": [
  ["CC(CCC(=O)O)C1CCC2C3C(CCC12C)C1(C)CCC(O)CC1CC3(O)C(C)C (stereo not shown) [2h]", "HepG2", "103 µM"],
  ["CC[C@@]1(O)C[C@@H]2C[C@H](O)CC[C@]2(C)C2CC[C@@]3(C)C(CC[C@@H]3[C@H](C)CCC(=O)O)C21 (stereo partly shown) [2c]", "HepG2", "> 200 µM"],
  ["C[C@H](CCC(=O)O)[C@H]1CCC2C3C(CC[C@@]21C)[C@@]1(C)CC[C@@H](O)C[C@H]1C[C@@]3(C)O (stereo partly shown) [2b]", "HepG2", "> 200 µM"],
  ["C=C[C@@]1(O)C[C@@H]2C[C@H](O)CC[C@]2(C)C2CC[C@@]3(C)C(CC[C@@H]3[C@H](C)CCC(=O)O)C21 (stereo partly shown) [2d]", "HepG2", "169 µM"],
  ["CCCCCCCCC[C@@]1(O)C[C@@H]2C[C@H](O)CC[C@]2(C)C2CC[C@@]3(C)C(CC[C@@H]3[C@H](C)CCC(=O)O)C21 (stereo partly shown) [2k]", "HepG2", "~10.9 µM"],
  ["CCC[C@@]1(O)C[C@@H]2C[C@H](O)CC[C@]2(C)C2CC[C@@]3(C)C(CC[C@@H]3[C@H](C)CCC(=O)O)C21 (stereo partly shown) [2f]", "HepG2", "107 µM"],
  ["C=CCCC[C@@]1(O)C[C@@H]2C[C@H](O)CC[C@]2(C)C2CC[C@@]3(C)C(CC[C@@H]3[C@H](C)CCC(=O)O)C21 (stereo partly shown) [2j]", "HepG2", "77.3 µM"]
]}
